- tested-on: Glucocorticoid receptor (Homo sapiens)
- protocol: qHTS assay to identify small molecule antagonists of the glucocorticoid receptor (GR) signaling pathway (AID 720692)
- condition-summary: GR-bla HeLa, beta-lactamase FRET ratio, dexamethasone-stimulated, 18 h; series mostly up to 58.5 µM
Results filed as inconclusive are left out. Activity calls are given as the source filed them. Calls follow the shape of the dose curve; as a rule, active = well fitted inhibition curve with a large enough effect in the signal ratio in the repeat runs (not every such curve was filed as active); inconclusive = weak or mixed curves, or effect the other way; inactive = no such curve, though single readings can be large or run the other way; the % refers to the signal ratio. Positions of bridges follow the written chain, without caps; N, C: chain ends. Non-standard residues stand in square brackets, D forms with d. Residues, ends and D or L forms follow the SMILES beside them. Orn = NCCC[C@H](N)C(=O)O; Mpa = O=C(O)CCS
Labels: active, inactive

[
  {
    "compound": "CCCCCCCCCCCCCCCC(=O)O[C@@H]1[C@@H](O)[C@@H](O)[C@@H]([C@H](NC(=O)[C@@H]2C[C@@H](CCC)CN2C)[C@H](C)Cl)O[C@@H]1SC",
    "class": "inactive"
  },
  {
    "compound": "CC1(C)S[C@@H]2[C@H](NC(=O)[C@H](NC(=O)N3CCN(S(C)(=O)=O)C3=O)c3ccccc3)C(=O)N2[C@H]1C(=O)O",
    "class": "inactive"
  },
  {
    "compound": "C#CCC(Cc1cnc2nc(N)nc(N)c2n1)c1ccc(C(=O)N[C@@H](CCC(=O)O)C(=O)O)cc1 (some centres undefined)",
    "class": "inactive"
  },
  {
    "compound": "CCOc1ccc(C[C@H]2NC(=O)CCSSC[C@@H](C(=O)N3CCC[C@H]3C(=O)N[C@@H](CCCN)C(=O)NCC(N)=O)NC(=O)[C@H](CC(N)=O)NC(=O)[C@H]([C@@H](C)O)NC(=O)[C@H]([C@@H](C)CC)NC2=O)cc1 ([Mpa][dY](Et)ITNCP[Orn]G-NH2; disulfide 1-6)",
    "class": "inactive"
  },
  {
    "compound": "Cc1nc(NS(=O)(=O)c2ccc(N)cc2)nc(C)c1Br",
    "class": "inactive"
  },
  {
    "compound": "O=C(O)c1nc(=O)[nH]c(=O)[nH]1",
    "class": "inactive"
  },
  {
    "compound": "CCCCCC(O)/C=C/C=O (centres undefined)",
    "class": "inactive"
  },
  {
    "compound": "CO/N=C(\\C(=O)N[C@@H]1C(=O)N2C(C(=O)OCOC(=O)C(C)(C)C)=C(/C=C\\c3scnc3C)CS[C@H]12)c1csc(N)n1",
    "class": "inactive"
  },
  {
    "compound": "CC(C)[C@H](N)C(=O)OCC(CO)OCn1cnc2c(=O)[nH]c(N)nc21 (some centres undefined)",
    "class": "inactive"
  },
  {
    "compound": "Nc1ncnc2c1ncn2CCOCP(=O)(O)O",
    "class": "inactive"
  },
  {
    "compound": "CC(C)c1nc(N(C)S(C)(=O)=O)nc(-c2ccc(F)cc2)c1/C=C/C(O)CC(O)CC(=O)O (centres undefined)",
    "class": "inactive"
  },
  {
    "compound": "CO[C@H]1O[C@@H]2O[C@@]3(C)CC[C@H]4[C@H](C)CC[C@@H]([C@H]1C)[C@@]24OO3",
    "class": "inactive"
  },
  {
    "compound": "CN(C)C(=O)CCSC(SCCC(=O)O)c1cccc(/C=C/c2ccc3ccc(Cl)cc3n2)c1 (centres undefined)",
    "class": "active"
  },
  {
    "compound": "CNc1cc(OC)c(C(=O)N[C@H]2CCN(Cc3ccccc3)[C@H]2C)cc1Cl",
    "class": "inactive"
  },
  {
    "compound": "COC(=O)CC[C@H](N)C(=O)O",
    "class": "inactive"
  },
  {
    "compound": "CC1(C)N=C(N)N=C(N)N1c1ccc(Cl)cc1",
    "class": "inactive"
  },
  {
    "compound": "CCOC(=O)COc1ccc2c(C)c(CCN(CC)CC)c(=O)oc2c1",
    "class": "inactive"
  },
  {
    "compound": "Cc1ncc(C[n+]2csc(CCOP(=O)(O)OP(=O)(O)O)c2C)c(N)n1",
    "class": "inactive"
  },
  {
    "compound": "CCCCCCCCCCCCCCCCCC[N+](C)(C)CCC[Si](OC)(OC)OC",
    "class": "inactive"
  }
]

meta.source: PubChem BioAssay (Tox21)
